target: Pseudomonas aeruginosa LpxC enzyme (Pseudomonas aeruginosa (strain ATCC 15692 / DSM 22644 / CIP 104116 / JCM 14847 / LMG 12228 / 1C / PRS 101 / PAO1), UniProt P47205); assay: biochemical; type: biochemical; conditions: inhibitory activity on Pseudomonas aeruginosa LpxC enzyme, class symbols A/B/C; read-out: Enzyme inhibitory activity
Catalogue of IC50 values

Some molecules with known IC50 results, for comparison:
| MOLECULE | IC50 |
| --- | --- |
| CNC(=O)C(C(=O)NO)N(C)C(=O)c1ccc(-c2ccc(N(C)C)c(F)c2)cc1 (stereo not shown) | 10 to 100 nM |
| CNC(=O)C(C(=O)NO)N(C)C(=O)c1ccc(C#Cc2ccc(OC)nc2)cc1 (stereo not shown) | < 10 nM |
| CCN(C(=O)c1ccc(C#Cc2ccc(CN3CCCOCC3)cc2)cc1)C(C(=O)NC)C(=O)NO (stereo not shown) | < 10 nM |

In plain terms, O=C(NC(C(=O)NO)C(=O)NCc1ccncc1)c1ccc(-c2ccc(OCCO)cc2)cc1 (stereo not shown) has a documented IC50 of < 10 nM

In plain terms, CNC(=O)C(C(=O)NO)N(C)C(=O)c1ccc(-c2ccc(C)c(F)c2)cc1 (stereo not shown) has a documented IC50 of < 10 nM

In plain terms, CNC(=O)C(C(=O)NO)N(C)C(=O)c1ccc(C#Cc2ccc(CCN3CCCOCC3)cc2)cc1 (stereo not shown) has a documented IC50 of < 10 nM
